Provenance of the data: PubChem BioAssay (NCI)

# Test system: HOP-92 NSCLC
# Method description: NCI tumour cell line growth inhibition, 48 h
Experimental endpoint: GI50

{"Substance smiles": "CC(C)(C)c1cc(-n2c(-c3ccc(Cl)cc3)nc3cc(C(=O)Nc4ccc(Cl)cc4)ccc32)n[nH]1", "Experimental endpoint": "GI50", "Value reported": "1650 nM"}
{"Substance smiles": "Cn1c2c(c3ccc([N+](=O)[O-])cc3c1=O)C(=O)c1ccccc1-2", "Experimental endpoint": "GI50", "Value reported": "> 100000 nM"}
{"Substance smiles": "CC(C)=CCC[C@](C)(O)[C@H]1CC[C@]2(C)[C@@H]1CC[C@@H]1[C@@]3(C)CC/C(=N/O)C(C)(C)[C@@H]3CC[C@]12C", "Experimental endpoint": "GI50", "Value reported": "7480 nM"}
{"Substance smiles": "COc1cc(C(=O)N2CCN(c3ncnc4ccccc34)CC2)c(N)cc1OCc1ccccc1", "Experimental endpoint": "GI50", "Value reported": "15400 nM"}
{"Substance smiles": "NCCOCCOCCNc1nc(-c2ccccc2)nc(N2CCN(c3ccccn3)CC2)n1", "Experimental endpoint": "GI50", "Value reported": "1840 nM"}
{"Substance smiles": "O=C(Nc1ccc(-n2ccc3c(NC(=O)c4ccccc4)ncnc32)cc1)Nc1ccc(Cl)c(Cl)c1", "Experimental endpoint": "GI50", "Value reported": "1120 nM"}

###

# Tested on: LOX IMVI melanoma
# Method description: NCI tumour cell line growth inhibition, 48 h
Measured TGI, listed per entry for reference.

{"Compound": "C/C1=C/C(=O)O[C@@H]2C[C@@H](CC[C@H](C)/C=C\\C=C\\CC1)O[C@@](O)([C@@H]1CSC(=O)N1)C2", "System tested": "LOX IMVI melanoma", "Comparative sign": ">", "TGI / µM": 3.88}
{"Compound": "COc1cccc(NC(=O)c2sc3nc(C)c(C(O)c4ccccc4)cc3c2N)c1 (stereo not given)", "System tested": "LOX IMVI melanoma", "Comparative sign": "=", "TGI / µM": 18.6}
{"Compound": "Cc1cc(/C=C/c2cc[n+](C)c3ccccc23)c(O)c2ncccc12", "System tested": "LOX IMVI melanoma", "Comparative sign": "=", "TGI / µM": 12.3}
{"Compound": "Cc1c(N2CCN(C)CC2)nc2ccc(Cl)cc2c1-c1ccccc1", "System tested": "LOX IMVI melanoma", "Comparative sign": "=", "TGI / µM": 28.3}
{"Compound": "NCCCC[C@H](N)C(=O)Nc1ccc(-c2nc3ccccc3s2)cc1", "System tested": "LOX IMVI melanoma", "Comparative sign": "=", "TGI / µM": 72}
{"Compound": "COc1ccc(N2C(=O)C3c4[nH]c5ccc(Br)cc5c4C4CCC(C(C)(C)C)CC4C3C2=O)cc1 (stereo not given)", "System tested": "LOX IMVI melanoma", "Comparative sign": ">", "TGI / µM": 100}
{"Compound": "NCCCCCCCn1c2c(c3ccccc3c1=O)C(=O)c1ccccc1-2", "System tested": "LOX IMVI melanoma", "Comparative sign": "=", "TGI / µM": 2.76}
{"Compound": "CCN(CC)CC(O)CNc1c2ccc([N+](=O)[O-])cc2nc2cc(OC)c(OC)cc12 (stereo not given)", "System tested": "LOX IMVI melanoma", "Comparative sign": "=", "TGI / µM": 0.662}
{"Compound": "CN(Cc1ccccc1)c1ccc(CO)c(Cl)c1", "System tested": "LOX IMVI melanoma", "Comparative sign": ">", "TGI / µM": 100}
{"Compound": "O=C(O)CCSCc1ccccc1", "System tested": "LOX IMVI melanoma", "Comparative sign": ">", "TGI / µM": 100}
